Values from patent US6706725B1

# Target Or System: human VDR receptor (Homo sapiens, UniProt P11473)
# Construct: expressed in transfected cells; host or cells: HeLa
# Sequence (P11473 whole entry): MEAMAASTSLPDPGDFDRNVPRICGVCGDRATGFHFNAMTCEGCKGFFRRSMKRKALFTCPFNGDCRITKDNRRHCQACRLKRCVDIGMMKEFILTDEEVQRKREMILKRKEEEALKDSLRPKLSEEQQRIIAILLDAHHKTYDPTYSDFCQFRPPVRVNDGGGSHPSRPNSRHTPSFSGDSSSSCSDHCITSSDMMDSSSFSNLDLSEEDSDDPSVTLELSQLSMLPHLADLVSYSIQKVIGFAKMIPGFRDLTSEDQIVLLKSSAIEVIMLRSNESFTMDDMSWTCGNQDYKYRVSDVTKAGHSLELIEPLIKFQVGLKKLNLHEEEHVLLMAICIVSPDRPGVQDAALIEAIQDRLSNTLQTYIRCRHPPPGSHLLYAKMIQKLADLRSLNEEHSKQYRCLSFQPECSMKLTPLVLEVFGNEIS
# Method Summary: VDR agonist activity by co-transfection in HeLa cells (human VDR expression vector + p240Hase-CAT reporter, CAT ELISA)
# Assay type: cell-based
# Stated Conditions: HeLa cell line co-transfected with human VDR and rat 24-hydroxylase promoter-CAT reporter; treatment for 18 hours; read-out: AC 50 (dose required to achieve 50% of the maximum activity of the product)
Consider the following molecules and their measured log10 AC50 readings.
In plain terms, each number is the log10 of measured AC50 in nM.

Guide cases for log10 AC50, answers given:
[
  {
    "Molecule Smiles": "CC/C(=C\\C=C\\C(O)(CC)CC)c1ccc(COc2ccc(CO)c(CO)c2)s1",
    "log10 AC50": 1.23
  },
  {
    "Molecule Smiles": "CCC(O)(CC)CC/C=C(\\C)c1cc(COc2ccc(CO)c(CO)c2)cs1",
    "log10 AC50": 2.43
  },
  {
    "Molecule Smiles": "CCC(O)(CC)CC/C=C(\\C)c1ccc(COc2ccc(CO)c(CO)c2)s1",
    "log10 AC50": 2.28
  }
]

Query: Name the reported log10 AC50 value associated with the molecule "CC/C(=C\CCC(O)(CC)CC)c1cccc(COc2ccc(CO)c(CO)c2)n1"
Result: 2.47

Query: Then "CC/C(=C\CCC(O)(CC)CC)c1ccc(CCc2ccc(CO)c(CO)c2)s1" ?
Result: 1.46

Query: // same read-out, input: "CC/C(=C\CCC(O)(CC)CC)c1cc(CCc2ccc(CO)c(CO)c2)cs1"
Result: 1.36

Query: Now the same for "CC/C(=C\CCC(O)(CC)CC)c1ccc(COc2ccc(CO)c(CO)c2)s1"
Result: 1.79

Query: Same question, "CC/C(=C\C=C\C(O)(C(F)(F)F)C(F)(F)F)c1ccc(COc2ccc(CO)c(CO)c2)s1" this time
Result: 1.89

Query: Now give it for "CC/C(=C\CCC(O)(CC)CC)c1csc(COc2ccc(CO)c(CO)c2)c1" too.
Result: 2.82
